Tested on: K-562 leukemia
Assay: NCI tumour cell line growth inhibition, 48 h
Quantity: TGI

| Compound | Reported Value |
| --- | --- |
| O=C1c2cccnc2C(=O)c2c1nc1ccccc1c2-c1ccc2c3c(nc4ccccc42)C(=O)c2cccnc2-c13 | > 35.3 µM |
| Cc1ccc2nc(Nc3ccccc3C)c(Nc3ccccc3C)nc2c1 | > 57.4 µM |
| NC1(C(=O)O)CSSC1 | > 100 µM |
| O=c1c2ccccc2c(=O)c2c1sc1c(=O)c3ccc(O)cc3c(=O)c12 | > 100 µM |
| C(/C=C/N1CCCC1)=C\c1nc(N2CCCC2)c2ccccc2n1 | 35.6 µM |
| CCCCOP1(=O)C=CC(Cl)=C(C)C1 (configuration not stated) | 50 µM |
| COc1cccc(C2CC(=O)Nc3cc4c(cc32)CCC4)c1OC (configuration not stated) | 37.5 µM |
| CC1=CC(O)CC(C)(C)C1/C=C/C(C)=C/C=C/C(C)=C/C=C/C=C(C)/C=C/C=C(C)/C=C/C1=C(C)CC(O)CC1(C)C (configuration not stated) | > 100 µM |
| CN(C)CCN1C(=O)N(CCN(C)C)c2c3cc(O)ccc3nc3c([N+](=O)[O-])ccc1c23 | 14.5 µM |
| Nn1nnc2ccccc21 | > 100 µM |
| CCCC/C=C1\CCC(CN2CCCC2)C1=O (configuration not stated) | 11.1 µM |
| O=C1Cc2ccccc2CCc2ccccc21 | > 100 µM |
| O=C(O)CCSc1ncnc2nc[nH]c12 | > 100 µM |
| NCCn1c2c(c3ccccc3c1=O)C(=O)c1ccccc1-2 | 3.46 µM |
| O=C(O)Cn1c[n+](NC(=O)Cc2ccccc2)cn1 | > 10 µM |
| COC(=O)Cc1cc(=O)oc2c1C(=O)CCC2 | > 100 µM |
| CCOC(=O)c1c(-c2ccc(OC)cc2)c(C#N)c(=S)n(C2OC(CO)C(O)C(O)C2O)c1C (configuration not stated) | > 100 µM |
| COc1cc(/C=C2\C(=O)Nc3ccc(Br)cc32)cc(OC)c1OC | > 100 µM |
| Cc1cc2c(-c3nc4ccccn4c3NC34CC5CC(CC(C5)C3)C4)c(O)c(O)cc2c(O)c1-c1c(C)cc2c(-c3nc4ccccn4c3NC34CC5CC(CC(C5)C3)C4)c(O)c(O)cc2c1O | 4.93 µM |
| N#CC1=C(N)Oc2c(sc3c(Br)cccc23)C1c1ccc(F)cc1 (configuration not stated) | 23.9 µM |
| O=C(Nc1cccc(Cl)c1)c1cc(Cl)ccc1O | > 100 µM |
| O=c1n(CCCN2CCOCC2)nc2n1-c1ccc3ccccc3c1SC2 | > 100 µM |

###

System: SK-MEL-28 melanoma
Assay: NCI tumour cell line growth inhibition, 48 h
Entries annotated with measured TGI
Quantity: TGI (µM)

| Compound | Assayed System | Units Of Measure | Comparison Sign | Reported Value |
| --- | --- | --- | --- | --- |
| COc1ccc(CNC(=O)c2ccc(-c3cc(-c4nnc(C)o4)ccc3C)cc2)cc1 | SK-MEL-28 melanoma | µM | > | 25 |
| Cc1cc2c(-c3nc4ccccn4c3NC34CC5CC(CC(C5)C3)C4)c(O)c(O)cc2c(O)c1-c1c(C)cc2c(-c3nc4ccccn4c3NC34CC5CC(CC(C5)C3)C4)c(O)c(O)cc2c1O | SK-MEL-28 melanoma | µM | = | 4.69 |
| COC(=O)[C@@H]1[C@H]2CC[C@]3(C)[C@@H](OC(C)=O)CC[C@H]3[C@@H]2CC[C@H]1C1(C)SCCS1 | SK-MEL-28 melanoma | µM | > | 100 |
| CC12O[Te]34OC1(C)C(C)(O3)C2(C)O4 | SK-MEL-28 melanoma | µM | = | 23.3 |
| C=CCN(c1cc(OC)c2[nH]c(C(=O)O)c(C)c2c1[N+](=O)[O-])S(C)(=O)=O | SK-MEL-28 melanoma | µM | > | 100 |
| COC12C=C/C(=C(/C(=O)OCc3csc(SC)n3)C(=O)CCCCCCCCC3(OC)C=C/C(=C(/C(=O)OCc4cnc(SC)s4)C(=O)CCCCCCCC1)O3)O2 (stereo unspecified) | SK-MEL-28 melanoma | µM | > | 100 |
| CC(C)(C)c1cc(C(=O)O)c(C(c2ccccc2)c2ccccc2C(=O)O)c(C(=O)O)c1 (stereo unspecified) | SK-MEL-28 melanoma | µM | > | 100 |
| CCc1ccc(OCc2ccccc2C(=O)Nc2ccc3nc(C)cc(N)c3c2)cc1 | SK-MEL-28 melanoma | µM | = | 3.29 |
| NCCn1c2c(c3ccccc3c1=O)C(=O)c1ccccc1-2 | SK-MEL-28 melanoma | µM | = | 3.14 |
| c1cc2ccc1C1NCCCN1CCN1CCCNC1c1ccc(cc1)C1NCCCN1CCN1CCCNC21 (stereo unspecified) | SK-MEL-28 melanoma | µM | > | 100 |
| COc1cc2c3cc1Oc1cc(ccc1O)C[C@@H]1c4c(cc(OC)c(O)c4Oc4ccc(cc4)C[C@@H]3[N+](C)(C)CC2)CC[N+]1(C)C | SK-MEL-28 melanoma | µM | > | 100 |
| CC1=CC(O)CC(C)(C)C1/C=C/C(C)=C/C=C/C(C)=C/C=C/C=C(C)/C=C/C=C(C)/C=C/C1=C(C)CC(O)CC1(C)C (stereo unspecified) | SK-MEL-28 melanoma | µM | = | 31.4 |
| COc1cccc(Nc2nc3c([nH]2)c(=O)n(C)c(=O)n3C)c1 | SK-MEL-28 melanoma | µM | > | 10 |
| O=c1ncccn1C1OC(CO)C(O)C1F (stereo unspecified) | SK-MEL-28 melanoma | µM | > | 100 |
| CC(C)(C)C#CI1OC(=O)c2ccccc21 | SK-MEL-28 melanoma | µM | = | 17.8 |
| Cc1ccc(S(=O)c2ccc([N+](=O)[O-])c3nonc23)cc1 (stereo unspecified) | SK-MEL-28 melanoma | µM | = | 23.3 |
